Ki, BCLXL WT (Homo sapiens (Human), UniProt Q07817), per-entry values.
Measure: Ki (nM)

[P] Cc1nn(C)cc1N(C(=O)c1cc(-c2cc3c(cc2C(=O)N2Cc4ccccc4C[C@H]2C)CN(C(=O)Cc2ccc(OCCN(C)C)cc2F)CC3)n(C)c1C)c1ccccc1 [Example 222]
[Q] Cc1c(N(C(=O)c2cc(-c3cc4c(cc3C(=O)N3Cc5ccccc5C[C@H]3C)CN(C(=O)Cc3ccc(OCCN5CCOC6(CC6)C5)cc3)CC4)n(C)c2C)c2ccc(O)cc2)cc(C#N)n1C [Example 93]
[R] Cc1c(C(=O)N(c2ccccc2)c2cc(C#N)n(C(F)F)c2C)cc(-c2cc3c(cc2C(=O)N2Cc4ccccc4C[C@H]2C)CN(C(=O)Cc2ccc(OCCN4CCOCC4)cc2)CC3)n1C [Example 214]
Q: Please rank the 3 items above; order by Ki, the highest number leading. Return value: ordered labels per request.
Ans: P, R, Q

[I] Cc1c(N(C(=O)c2cc(-c3cc4c(cc3C(=O)N3Cc5ccccc5C[C@H]3CN3CCCCC3)CN(C(=O)Cc3ccc(OCCN(C)C5CC5)cc3F)CC4)n(C)c2C)c2ccc(O)cc2)cc(C#N)n1C [Example 88]
[II] Cc1c(C(=O)N(c2ccccc2)c2cnn(C(F)F)c2)cc(-c2cc3c(cc2C(=O)N2Cc4ccccc4C[C@H]2C)CN(C(=O)Cc2ccc(OCCN4CCOCC4)cc2F)CC3)n1C [Example 193]
Q: // returns I or II , whichever has the lower Ki Label of pick, please.
Ans: I
